Tested on: c-Abl (mouse)
ASSAY OVERVIEW: phosphorylation enrichment, bacterial display (enrichment ratio); higher = better substrate or ligand; peptides without Tyr show the background;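 note: 11-residue human phosphosite peptides and single-mutation variants displayed on the E. coli surface, counted by deep sequencing, each peptide's frequency after selection divided by its frequency in the unselected input library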;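 note: frequency after pTyr selection over input frequency; kinase dosed for 20-30% of maximal phosphorylation in three min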
Recorded phosphorylation enrichment determines the group label, using Low = under 0.6, Medium = from 0.6 up to 0.9, High = 0.9 and over

> print(dat)
                      primary.sequence  class.label
 1        AEQDCYHGAIP [FER_Y461_W460C]       Medium
 2         PSSNLYFRWLT [CNGA3_Y168_YF]       Medium
 3      GGSSPYSRRLA [CDK13_Y351_P356A]          Low
 4       RDSQIYAVDYE [MRPS34_Y34_L33I]       Medium
 5     FADGVYLALEE [DUOX2_Y70_Q71L_YF]       Medium
 6            AQQPIYVRVEG [NLRP7_Y318]         High
 7            LARDIYKNDYY [ROS1_Y2110]          Low
 8   FLGRNYLETLM [DUS3L_Y610_D609N_YF]          Low
 9          GQKVAYGGTGD [ALDH3A1_Y305]          Low
10           FFRDGYMPRQF [GSS_Y270_YF]          Low
11        IEEGTYGVVFR [CDK11B_Y449_YF]         High
12            EDGFAYVPLKD [PRIM2_Y208]       Medium
13         RREGVYRNNID [PTEN_Y46_L42R]       Medium
14            QKMLDYLKEKK [RYR2_Y3780]          Low
15      HLLRIYYDITD [MMP27_Y307_W304L]         High
16        PVQAASQKVVA [HBB_Y131_Y131S]          Low
17       FRARAYSFRGP [CHGA_Y381_G382S]          Low
18            SDVCMYRKNIY [SYNE2_Y570]       Medium
19         RVKPIYFHTQG [AR_Y916_K911R]         High
20    ADEEYYEIIAA [FEStide_no-pY_2014]         High
21     TKQLTYEEQYL [PIK3C3_Y310_D314Y]       Medium
22       LASLIYNFILF [AQP6_Y231_V234I]         High
23  NTQRPHFKGGG [TYROBP_Y111_Y111H_YF]         High
24            NNIDYYKKTTN [FGFR2_Y657]          Low
25            LNPLIYSLRNK [OR5R1_Y290]         High

###

ASSAY TARGET: Jak2 (UniProt O60674)
Sequence (O60674 whole entry, looked up): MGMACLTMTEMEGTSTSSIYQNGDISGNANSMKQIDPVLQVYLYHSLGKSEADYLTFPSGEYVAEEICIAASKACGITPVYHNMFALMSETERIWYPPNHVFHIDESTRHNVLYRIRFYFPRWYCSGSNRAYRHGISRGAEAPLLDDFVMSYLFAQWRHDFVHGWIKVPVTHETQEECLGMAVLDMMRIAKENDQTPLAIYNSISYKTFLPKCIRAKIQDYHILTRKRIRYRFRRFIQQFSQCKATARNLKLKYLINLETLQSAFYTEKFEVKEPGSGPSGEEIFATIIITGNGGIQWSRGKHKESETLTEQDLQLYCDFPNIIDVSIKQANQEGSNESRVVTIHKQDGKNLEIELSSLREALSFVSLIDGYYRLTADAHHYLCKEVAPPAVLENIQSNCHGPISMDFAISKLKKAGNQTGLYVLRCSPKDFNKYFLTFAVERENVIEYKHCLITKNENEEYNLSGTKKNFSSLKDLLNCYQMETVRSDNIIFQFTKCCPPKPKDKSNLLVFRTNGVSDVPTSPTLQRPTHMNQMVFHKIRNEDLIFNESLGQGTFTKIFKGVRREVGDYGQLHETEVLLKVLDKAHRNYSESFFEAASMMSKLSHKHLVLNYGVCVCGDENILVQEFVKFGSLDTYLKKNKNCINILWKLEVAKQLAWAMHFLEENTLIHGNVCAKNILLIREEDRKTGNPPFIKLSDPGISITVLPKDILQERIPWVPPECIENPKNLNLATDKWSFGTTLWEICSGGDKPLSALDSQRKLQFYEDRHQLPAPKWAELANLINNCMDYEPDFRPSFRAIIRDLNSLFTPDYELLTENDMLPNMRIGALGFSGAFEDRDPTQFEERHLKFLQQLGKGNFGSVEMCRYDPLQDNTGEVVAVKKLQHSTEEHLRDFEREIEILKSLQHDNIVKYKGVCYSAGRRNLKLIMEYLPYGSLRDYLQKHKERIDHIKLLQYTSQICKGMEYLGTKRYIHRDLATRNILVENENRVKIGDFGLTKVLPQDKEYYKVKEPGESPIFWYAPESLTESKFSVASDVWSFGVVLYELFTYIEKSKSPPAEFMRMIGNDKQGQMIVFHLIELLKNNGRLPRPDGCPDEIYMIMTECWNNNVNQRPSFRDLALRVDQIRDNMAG
ASSAY OVERVIEW: phosphorylation enrichment, bacterial display (enrichment ratio); higher = better substrate or ligand; peptides without Tyr show the background
Property: phosphorylation enrichment; scope: individual sequences
READOUT NAME: phosphorylation enrichment

> print(dat)
                 primary.sequence                readout.name  recorded.number
1       GGCQEYTGAPF [NAXD_Y85_YF]  phosphorylation enrichment            0.817
2  GHMYAYDWISI [BEST1_Y227_L224M]  phosphorylation enrichment            0.798
3        PPAPRYHHSAV [LZTR1_Y119]  phosphorylation enrichment            0.781
